This section presents binders with their documented OD450 values.
# assaySystem: T1, human MSLN-FL-his protein (human, UniProt Q13421 296-580)
# T1 construct: Made in HEK293E cells, purified on nickel column; it is put last here; also called human MSLN full-length protein; hMSLN-FL-his; not shown: His tag
# T1 sequence (Q13421 other isoform, or with tags, fused parts or gaps): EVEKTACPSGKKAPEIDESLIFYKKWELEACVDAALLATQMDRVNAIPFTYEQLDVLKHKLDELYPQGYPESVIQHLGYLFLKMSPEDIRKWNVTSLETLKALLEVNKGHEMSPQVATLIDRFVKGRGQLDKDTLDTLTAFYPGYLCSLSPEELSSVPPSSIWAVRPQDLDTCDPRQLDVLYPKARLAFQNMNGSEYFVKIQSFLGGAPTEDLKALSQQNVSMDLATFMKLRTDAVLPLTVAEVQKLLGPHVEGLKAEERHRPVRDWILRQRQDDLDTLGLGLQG
# assayProtocol: ELISA on coated antigen, antibody 1 nM
Please answer using the number first and the unit second.

Before answering, review these 2 worked examples.
binder: S009-F8-13.8 (antibody, human IgG1, kappa, V domains shown, Human-murine chimeric antibody, human IgG1 heavy and kappa light constant regions) VH: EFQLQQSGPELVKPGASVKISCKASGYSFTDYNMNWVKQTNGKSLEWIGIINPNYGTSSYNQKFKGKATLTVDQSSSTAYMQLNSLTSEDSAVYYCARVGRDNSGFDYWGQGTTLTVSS VL: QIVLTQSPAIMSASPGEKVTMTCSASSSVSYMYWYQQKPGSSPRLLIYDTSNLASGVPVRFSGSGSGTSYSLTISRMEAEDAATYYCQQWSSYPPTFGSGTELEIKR
OD450: 2.05 OD

binder: S009-F8-4.5 (antibody, human IgG1, kappa, V domains shown, Human-murine chimeric antibody, human IgG1 heavy and kappa light constant regions) VH: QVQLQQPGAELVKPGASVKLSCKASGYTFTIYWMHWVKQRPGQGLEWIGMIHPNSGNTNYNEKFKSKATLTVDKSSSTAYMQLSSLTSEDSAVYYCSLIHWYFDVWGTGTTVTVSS VL: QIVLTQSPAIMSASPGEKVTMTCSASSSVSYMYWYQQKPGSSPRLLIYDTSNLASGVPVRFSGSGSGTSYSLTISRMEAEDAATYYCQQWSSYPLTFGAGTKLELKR
OD450: 2.8 OD

Kindly consider the entry below.
[ask] What OD450 value was documented for this binder, S009-F8-19.21 (antibody, human IgG1, kappa, V domains shown, Human-murine chimeric antibody, human IgG1 heavy and kappa light constant regions) VH: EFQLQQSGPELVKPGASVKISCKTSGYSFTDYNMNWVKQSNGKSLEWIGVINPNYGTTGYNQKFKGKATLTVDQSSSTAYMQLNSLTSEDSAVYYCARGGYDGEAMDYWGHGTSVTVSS VL: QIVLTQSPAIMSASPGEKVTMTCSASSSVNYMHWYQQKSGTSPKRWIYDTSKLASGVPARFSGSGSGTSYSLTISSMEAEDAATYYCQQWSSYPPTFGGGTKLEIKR ?
[reply] 2.05 OD
